Study Target: recombinant human ACC2 (rhACC2) (Homo sapiens, UniProt O00763, V2141I)
Construct: a full length Cytomax clone of ACC2 was purchased from Cambridge Bioscience Limited
Sequence (O00763 whole entry V2141I): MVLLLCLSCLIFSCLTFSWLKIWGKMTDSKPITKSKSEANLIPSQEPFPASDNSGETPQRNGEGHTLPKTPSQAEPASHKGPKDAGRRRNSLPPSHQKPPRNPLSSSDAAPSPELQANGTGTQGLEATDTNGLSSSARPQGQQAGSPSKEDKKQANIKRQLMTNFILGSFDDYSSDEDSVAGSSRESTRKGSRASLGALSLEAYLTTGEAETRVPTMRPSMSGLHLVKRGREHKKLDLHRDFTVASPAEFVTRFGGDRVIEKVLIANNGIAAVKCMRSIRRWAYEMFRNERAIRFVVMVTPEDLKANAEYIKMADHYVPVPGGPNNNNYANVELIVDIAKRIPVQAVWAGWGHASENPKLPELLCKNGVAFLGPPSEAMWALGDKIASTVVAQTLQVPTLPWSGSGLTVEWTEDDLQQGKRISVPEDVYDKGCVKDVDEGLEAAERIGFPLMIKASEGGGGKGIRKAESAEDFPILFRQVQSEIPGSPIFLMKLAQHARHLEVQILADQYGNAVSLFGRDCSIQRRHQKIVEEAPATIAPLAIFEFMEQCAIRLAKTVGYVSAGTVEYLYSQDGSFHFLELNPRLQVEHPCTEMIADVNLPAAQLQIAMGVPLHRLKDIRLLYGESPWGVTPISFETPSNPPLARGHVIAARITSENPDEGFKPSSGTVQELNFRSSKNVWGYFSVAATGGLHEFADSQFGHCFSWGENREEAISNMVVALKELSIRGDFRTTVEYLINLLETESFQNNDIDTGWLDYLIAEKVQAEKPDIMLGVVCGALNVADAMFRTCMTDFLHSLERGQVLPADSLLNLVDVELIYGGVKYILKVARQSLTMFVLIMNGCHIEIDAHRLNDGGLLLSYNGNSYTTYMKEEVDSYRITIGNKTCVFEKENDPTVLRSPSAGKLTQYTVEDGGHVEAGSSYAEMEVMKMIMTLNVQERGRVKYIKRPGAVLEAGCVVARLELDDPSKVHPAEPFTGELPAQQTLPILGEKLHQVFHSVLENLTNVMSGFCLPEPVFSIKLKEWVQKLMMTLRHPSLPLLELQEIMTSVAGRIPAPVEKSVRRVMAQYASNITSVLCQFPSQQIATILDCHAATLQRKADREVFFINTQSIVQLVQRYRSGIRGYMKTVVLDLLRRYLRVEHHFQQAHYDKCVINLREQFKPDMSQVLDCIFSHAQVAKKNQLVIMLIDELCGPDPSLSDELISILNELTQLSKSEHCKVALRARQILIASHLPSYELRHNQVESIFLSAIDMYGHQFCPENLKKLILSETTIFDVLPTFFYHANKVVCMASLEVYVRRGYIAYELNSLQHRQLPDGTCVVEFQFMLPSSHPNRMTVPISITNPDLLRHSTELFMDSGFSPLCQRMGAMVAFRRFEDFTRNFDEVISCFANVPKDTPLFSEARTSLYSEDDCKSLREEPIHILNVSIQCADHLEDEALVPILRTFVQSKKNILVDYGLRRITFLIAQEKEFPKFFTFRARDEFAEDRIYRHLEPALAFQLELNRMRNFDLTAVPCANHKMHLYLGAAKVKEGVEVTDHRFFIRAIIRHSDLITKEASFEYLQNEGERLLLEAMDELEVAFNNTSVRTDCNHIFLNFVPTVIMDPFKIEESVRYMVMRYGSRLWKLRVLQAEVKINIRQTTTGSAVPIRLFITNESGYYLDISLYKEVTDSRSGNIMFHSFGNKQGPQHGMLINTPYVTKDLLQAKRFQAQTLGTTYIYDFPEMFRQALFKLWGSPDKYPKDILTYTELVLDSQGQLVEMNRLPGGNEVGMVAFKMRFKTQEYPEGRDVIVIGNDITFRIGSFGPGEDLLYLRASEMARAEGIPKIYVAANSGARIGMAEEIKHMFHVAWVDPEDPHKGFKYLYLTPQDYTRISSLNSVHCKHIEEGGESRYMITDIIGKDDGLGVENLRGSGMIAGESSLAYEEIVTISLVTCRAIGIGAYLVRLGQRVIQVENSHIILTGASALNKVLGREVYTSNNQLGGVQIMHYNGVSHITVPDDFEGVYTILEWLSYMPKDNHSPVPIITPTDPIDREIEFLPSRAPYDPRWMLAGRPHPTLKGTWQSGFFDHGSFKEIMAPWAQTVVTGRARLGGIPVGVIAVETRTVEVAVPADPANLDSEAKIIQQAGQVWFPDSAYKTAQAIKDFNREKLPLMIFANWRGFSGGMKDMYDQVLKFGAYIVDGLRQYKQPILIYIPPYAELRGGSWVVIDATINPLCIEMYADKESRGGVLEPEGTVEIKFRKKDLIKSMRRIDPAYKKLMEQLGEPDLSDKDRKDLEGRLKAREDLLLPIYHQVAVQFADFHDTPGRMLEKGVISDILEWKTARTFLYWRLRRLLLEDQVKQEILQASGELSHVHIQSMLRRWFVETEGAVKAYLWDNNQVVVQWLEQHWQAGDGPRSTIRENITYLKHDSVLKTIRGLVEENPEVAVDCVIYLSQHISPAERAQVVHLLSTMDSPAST
Measurement Protocol: recombinant hACC2 Transcreener assay (direct inhibition of ACC2 activity)
Condition Notes: Transcreener ADP detection FP assay, 50 μM ATP, 30 μM acetyl-CoA, 50 min at 25° C.
Measurement Kind: IC50 (nM)

Compound: Cc1ccc(O)c(C(=O)N2CCC3(CC2)CC(=O)c2c(cnn2C(C)C)C3)n1 [Example 11A-49]
Measure Unit: nM
IC50: 4910
//
Compound: CC(C)(C)n1ncc2c1C(=O)CC1(CCN(C(=O)c3cc(Cl)c4nc[nH]c4c3)CC1)C2
Measure Unit: nM
IC50: 17.2
//
Compound: CC(C)(C)n1ncc2c1C(=O)CC1(CCN(C(=O)c3cc4cccn4cn3)CC1)C2 [Example 11A-69]
Measure Unit: nM
IC50: 288
//
Compound: CC(=O)Nc1cccc(C(=O)N2CCC3(CC2)CC(=O)c2c(cnn2C(C)C)C3)n1
Measure Unit: nM
IC50: 1280
//
Compound: CC(C)(C)n1ncc2c1C(=O)CC1(CCN(C(=O)c3ccc4[nH]cnc4c3)CC1)C2
Measure Unit: nM
IC50: 28.6

A. CC(C)n1ncc2c1C(=O)CC1(CCN(C(=O)c3cnc4ccccc4n3)CC1)C2
B. COCCn1ncc2c1C(=O)CC1(CCN(C(=O)c3ccc(Cl)c(C)c3)CC1)C2
C. CC(C)n1ncc2c1C(=O)CC1(CCN(C(=O)c3cc4cnccc4[nH]3)CC1)C2 [Example 11A-56]
D. CC(C)(C)n1ncc2c1C(=O)CC1(CCN(C(=O)c3cc(Cl)c4[nH]ncc4c3)CC1)C2
E. CNc1nc(C)ccc1C(=O)N1CCC2(CC1)CC(=O)c1c(cnn1C(C)(C)C)C2 [Example 11A-30]
Q: Hey, quick one: sort these by IC50, low to high? Please respond by ranking the labels in the order requested.
A: D, E, C, A, B

1. CC(C)n1ncc2c1C(=O)CC1(CCN(C(=O)c3c[nH]c4c(cnn4C)c3=O)CC1)C2 [Example 11A-66]
2. CC(C)n1ncc2c1C(=O)CC1(CCN(C(=O)c3cc(Cl)c4cn[nH]c4c3)CC1)C2
Q: Given 1 and 2 , report the one with the higher recorded IC50. Your answer should be the label of the entry you select.
A: 1
(1: 1390 nM, 2: 51.5 nM)

I. CC(C)n1ncc2c1C(=O)CC1(CCN(C(=O)c3nn(-c4ccccc4)nc3N)CC1)C2 [Example 11A-6]
II. CC(C)n1ncc2c1C(=O)CC1(CCN(C(=O)c3ccc4cnccc4c3O)CC1)C2
III. Cc1nn(C(C)C)c2c1CC1(CCN(C(=O)c3ccc4[nH]cnc4c3)CC1)CC2=O
Q: Please produce an ascending ranking of these compounds based on IC50. Give me the labels in the order the question wants.
A: III, II, I
(III: 39.8 nM, II: 290 nM, I: 459 nM)

A. CC(C)n1ncc2c1C(=O)CC1(CCN(C(=O)c3cc4ccccn4c3)CC1)C2 [Example 11A-43]
B. CC(C)(C)n1nc(Br)c2c1C(=O)CC1(CCN(C(=O)c3cc(Br)c4[nH]c(=O)[nH]c4c3)CC1)C2 [Example 13A-1]
Q: Looking at recorded values for IC50, does A or B come in lower? Label of pick, please.
A: A
